Every entry's value here was drawn from the supplement of paper PMC12667976.

# AIRE transcriptional activation functional score values compiled below
B1: library; numbered along this chain (parent)
chain: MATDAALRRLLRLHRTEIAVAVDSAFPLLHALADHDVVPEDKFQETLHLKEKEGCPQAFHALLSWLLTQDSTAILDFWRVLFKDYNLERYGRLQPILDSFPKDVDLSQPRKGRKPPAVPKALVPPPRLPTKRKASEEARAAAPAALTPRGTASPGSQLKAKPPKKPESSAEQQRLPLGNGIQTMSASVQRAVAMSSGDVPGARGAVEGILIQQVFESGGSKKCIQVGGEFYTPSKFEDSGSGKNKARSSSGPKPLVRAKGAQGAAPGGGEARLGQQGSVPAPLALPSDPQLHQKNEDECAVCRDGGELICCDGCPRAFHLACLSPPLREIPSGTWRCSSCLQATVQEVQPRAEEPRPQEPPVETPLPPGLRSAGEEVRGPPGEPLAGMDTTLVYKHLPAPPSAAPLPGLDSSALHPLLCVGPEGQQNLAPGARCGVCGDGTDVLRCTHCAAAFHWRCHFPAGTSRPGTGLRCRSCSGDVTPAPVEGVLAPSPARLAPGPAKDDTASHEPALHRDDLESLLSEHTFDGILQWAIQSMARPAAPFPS

Variants of: B1
Experiment: AIRE transcriptional activation functional score (insulin promoter-GFP; nonsense median 0, synonymous median 1) (normalised score); higher = higher AIRE activity (more reporter activation)
Settings: with insulin promoter-GFP reporter in HEK293
Keep the answer to the number alone.

The examples below pair each entry with its known result.
{"mutationDescriptor": "D105Q", "numericValue": -0.785}
{"mutationDescriptor": "A281S", "numericValue": 0.99}
{"mutationDescriptor": "R149V", "numericValue": 0.621}
{"mutationDescriptor": "V348A", "numericValue": 1.1}
{"mutationDescriptor": "A170T", "numericValue": 0.748}

// query Return reported AIRE transcriptional activation functional score; argument: Q94G
// result 0.865

// query Cool, now R272N
// result 1.37

// query Moving on to the next variant: I211E
// result -0.399

// query Now this one: G228N
// result 1.51

// query Okay, and Q293P ?
// result 0.602

// query Now this one: T441Y
// result 1.12

// query Try the variant R272K
// result 0.494

// query Subsequent entry: Q534G
// result 1.08

// query Now this one: M194P
// result 0.602

// query Record: K501A
// result 0.451
